# credit: ChEMBL document CHEMBL1123683

Oxygen consumption rate, % of control: recorded values
system.tested: Prostaglandin G/H synthase 1 (Ovis aries) (UniProt P05979)
Sequence (P05979 whole entry, looked up): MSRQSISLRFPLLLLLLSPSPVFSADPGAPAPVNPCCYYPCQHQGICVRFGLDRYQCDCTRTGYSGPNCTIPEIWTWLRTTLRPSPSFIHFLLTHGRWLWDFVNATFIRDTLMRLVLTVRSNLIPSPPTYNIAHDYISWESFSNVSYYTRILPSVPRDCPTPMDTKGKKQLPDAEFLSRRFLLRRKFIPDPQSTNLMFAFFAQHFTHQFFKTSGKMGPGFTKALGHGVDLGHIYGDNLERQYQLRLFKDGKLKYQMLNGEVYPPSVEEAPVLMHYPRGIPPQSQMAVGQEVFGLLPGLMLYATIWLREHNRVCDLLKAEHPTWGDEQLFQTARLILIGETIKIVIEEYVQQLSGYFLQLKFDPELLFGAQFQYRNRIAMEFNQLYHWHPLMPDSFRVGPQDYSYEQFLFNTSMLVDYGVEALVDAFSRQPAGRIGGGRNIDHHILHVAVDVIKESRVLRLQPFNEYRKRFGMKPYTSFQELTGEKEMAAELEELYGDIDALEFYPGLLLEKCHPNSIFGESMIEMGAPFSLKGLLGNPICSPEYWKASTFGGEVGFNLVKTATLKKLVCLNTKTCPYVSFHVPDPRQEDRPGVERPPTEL
protocol.text: Inhibition of microsomal PGH synthase isolated from sheep seminal vesicles (SSV) estimated as rate of oxygen consumption in presence of 100 uM of the compound

structure.smiles | Oxygen consumption rate, % of control [%]
O=C(CCC(=O)Nc1ccc(O)cc1)Nc1ccc(O)cc1 | 79
COc1ccc(NC(=O)CC(=O)Nc2ccc(OC)cc2)cc1 | 78
O=C(CC(=O)Nc1ccc(O)cc1)Nc1ccc(O)cc1 | 67
CCCCC(C(=O)Nc1ccc(OC)cc1)C(=O)Nc1ccc(OC)cc1 | 102
CCCCC(C(=O)Nc1ccccc1)C(=O)Nc1ccccc1 | 105
O=C(CC(=O)Nc1ccc(Cl)cc1)Nc1ccc(Cl)cc1 | 64
